These data points were gathered from patent US11667621B2.

Molecular target: HA-ERα D538G (Homo sapiens, UniProt P03372, D538G)
Construct: HA; expressed in transfected cells
Sequence (P03372 1-595 D538G): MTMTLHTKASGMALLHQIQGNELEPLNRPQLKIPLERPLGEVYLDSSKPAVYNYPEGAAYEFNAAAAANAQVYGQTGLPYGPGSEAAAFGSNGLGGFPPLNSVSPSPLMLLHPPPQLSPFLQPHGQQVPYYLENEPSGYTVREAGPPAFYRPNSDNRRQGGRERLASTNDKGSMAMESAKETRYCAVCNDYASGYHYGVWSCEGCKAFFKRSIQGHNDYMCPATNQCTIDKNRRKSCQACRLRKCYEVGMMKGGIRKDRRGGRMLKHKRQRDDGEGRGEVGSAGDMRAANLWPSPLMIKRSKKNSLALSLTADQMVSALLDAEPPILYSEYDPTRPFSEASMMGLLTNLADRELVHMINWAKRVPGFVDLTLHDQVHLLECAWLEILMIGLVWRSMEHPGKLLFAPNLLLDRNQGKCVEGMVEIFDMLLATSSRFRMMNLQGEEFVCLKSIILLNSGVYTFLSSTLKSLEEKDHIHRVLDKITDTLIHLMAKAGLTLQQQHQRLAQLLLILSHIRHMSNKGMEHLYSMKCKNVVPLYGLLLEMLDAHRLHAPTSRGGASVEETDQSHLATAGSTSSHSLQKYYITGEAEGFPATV
Experiment: Luciferase assay, overexpressed ER (3×-ERE-TATA-Luciferase reporter)
Assay type: cell-based
Conditions: compound concentration 1 μM, 24 hours
Measured inhibition at 1 µM values are reported for all entries that follow.
attribute.measured: inhibition at 1 µM (%)

>>> obs_value("O=C(NCCCCOc1ccc(C(=C2C3CC4CC(C3)CC2C4)c2ccc(O)cc2)cc1)C1CCCCC1")
91
>>> obs_value("O=C(NCCCCOc1ccc(C(=C2C3CC4CC(C3)CC2C4)c2ccc(O)cc2)cc1)C1CCCCCC1")
92
>>> obs_value("O=C(NCCCCOc1ccc(C(=C2C3CC4CC(C3)CC2C4)c2ccc(O)cc2)cc1)C1CCC(F)(F)CC1")
92
>>> obs_value("O=C(NCCCCOc1ccc(C(=C2C3CC4CC(C3)CC2C4)c2ccc(O)cc2)cc1)C12CC3CC(CC1C3)C2")
89
>>> obs_value("O=C(NCCCCOc1ccc(C(=C2C3CC4CC(C3)CC2C4)c2ccc(O)cc2)cc1)C1CCC1")
89
>>> obs_value("O=C(NCCCCOc1ccc(C(=C2C3CC4CC(C3)CC2C4)c2ccc(O)cc2)cc1)C12CC3CC(CC(C3)C1)C2")
87
>>> obs_value("O=C(NCCCCOc1ccc(Oc2c(-c3ccc(O)cc3)sc3cc(O)ccc23)cc1)C1CC(F)(F)C1")
73

* * *

Measured CRISPR KI (% Inhibition) D538G cl. 50 values are reported for all entries that follow.
Target: CRISPR KI D538G (Homo sapiens, UniProt P03372, D538G)
Construct: endogenous in cells; host or cells: CRISPR knock-in clones (cl. 50, cl. 65)
Sequence (P03372 1-595 D538G): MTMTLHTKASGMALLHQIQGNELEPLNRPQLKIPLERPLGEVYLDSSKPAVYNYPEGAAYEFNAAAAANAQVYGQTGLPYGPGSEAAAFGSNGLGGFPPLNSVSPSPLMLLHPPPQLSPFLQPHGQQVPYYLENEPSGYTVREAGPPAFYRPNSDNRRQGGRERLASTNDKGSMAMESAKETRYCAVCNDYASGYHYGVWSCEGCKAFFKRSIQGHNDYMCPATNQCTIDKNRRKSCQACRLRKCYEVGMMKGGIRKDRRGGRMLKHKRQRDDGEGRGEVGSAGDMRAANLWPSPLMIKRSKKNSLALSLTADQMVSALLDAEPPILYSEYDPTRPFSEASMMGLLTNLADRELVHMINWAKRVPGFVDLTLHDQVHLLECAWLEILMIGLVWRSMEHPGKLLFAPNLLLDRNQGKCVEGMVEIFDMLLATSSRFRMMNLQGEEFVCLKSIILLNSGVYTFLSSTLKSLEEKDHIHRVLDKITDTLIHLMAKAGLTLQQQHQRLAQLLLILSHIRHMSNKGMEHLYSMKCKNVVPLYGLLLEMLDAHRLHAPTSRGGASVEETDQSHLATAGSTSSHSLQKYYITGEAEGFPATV
Experiment: Luciferase assay, CRISPR KI D538G clones
Type: cell-based
Settings: clone 50
attribute.measured: CRISPR KI (% Inhibition) D538G cl. 50 (%)

>>> obs_value("CC(C)(C)OC(=O)N[C@@H](Cc1c[nH]c2ccccc12)C(=O)NCCCCOc1ccc(C(=C2C3CC4CC(C3)CC2C4)c2ccc(O)cc2)cc1")
15
>>> obs_value("O=C(NCCCCOc1ccc(C(=C2C3CC4CC(C3)CC2C4)c2ccc(O)cc2)cc1)C12CC3CC(CC1C3)C2")
39
>>> obs_value("CC12CC3CC(C)(C1)CC(C(=O)NCCCCOc1ccc(C(=C4C5CC6CC(C5)CC4C6)c4ccc(O)cc4)cc1)(C3)C2")
15

* * *

Measured inhibition at 1 µM values are reported for all entries that follow.
Target: HA-ERα L536R (Homo sapiens, UniProt P03372, L536R)
Construct: HA; expressed in transfected cells
Test: Luciferase assay, overexpressed ER (3×-ERE-TATA-Luciferase reporter)
Type: cell-based
Conditions: compound concentration 1 μM, 24 hours
attribute.measured: inhibition at 1 µM

>>> obs_value("O=C(NCCCCOc1ccc(Oc2c(-c3ccc(O)cc3)sc3cc(O)ccc23)cc1)C1CC(F)(F)C1")
"90%"
>>> obs_value("O=C(NCCCCOc1ccc(C(=C2CCCCC2)c2ccc(O)cc2)cc1)C12CC3CC(CC(C3)C1)C2")
"69%"
>>> obs_value("O=C(NCCCCOc1ccc(C(=C2C3CC4CC(C3)CC2C4)c2ccc(O)cc2)cc1)C1CCCCCC1")
"87%"
>>> obs_value("O=C(NCCCCOc1ccc(C(=C2CCCCC2)c2ccc(O)cc2)cc1)C1CCCCC1")
"43%"
>>> obs_value("O=C(NCCCCOc1ccc(C(=C2C3CC4CC(C3)CC2C4)c2ccc(O)cc2)cc1)C1CCC1")
"78%"
>>> obs_value("O=C(NCCCCOc1ccc(C(=C2C3CC4CC(C3)CC2C4)c2ccc(O)cc2)cc1)C12CC3CC(CC1C3)C2")
"84%"
>>> obs_value("O=C(NCCCCOc1ccc(C(=C2C3CC4CC(C3)CC2C4)c2ccc(O)cc2)cc1)C1CCCCC1")
"79%"
>>> obs_value("O=C(NCCCCOc1ccc(C(=C2C3CC4CC(C3)CC2C4)c2ccc(O)cc2)cc1)C12CC3CC(CC(C3)C1)C2")
"70%"
>>> obs_value("O=C(COc1cccc2c1C(=O)N(C1CCC(=O)NC1=O)C2=O)NCCCCCCOc1ccc(C(=C2C3CC4CC(C3)CC2C4)c2ccc(O)cc2)cc1 (centres unmarked)")
"64%"
>>> obs_value("O=C(NCCCCOc1ccc(C(=C2CCCCC2)c2ccc(O)cc2)cc1)C1CCC1")
"-75%"
>>> obs_value("O=C1CCC(N2C(=O)c3cccc(OCCOCCOc4ccc(C(=C5C6CC7CC(C6)CC5C7)c5ccc(O)cc5)cc4)c3C2=O)C(=O)N1 (centres unmarked)")
"83%"
>>> obs_value("O=C1CCC(N2C(=O)c3cccc(OCCOCCOCCOc4ccc(C(=C5C6CC7CC(C6)CC5C7)c5ccc(O)cc5)cc4)c3C2=O)C(=O)N1 (centres unmarked)")
"84%"
>>> obs_value("O=C(NCCCCOc1ccc(C(=C2C3CC4CC(C3)CC2C4)c2ccc(O)cc2)cc1)C1CCC(F)(F)CC1")
"90%"
>>> obs_value("CC(C)(C)OC(=O)N[C@@H](Cc1c[nH]c2ccccc12)C(=O)NCCCCOc1ccc(C(=C2C3CC4CC(C3)CC2C4)c2ccc(O)cc2)cc1")
"70%"

* * *

Molecular target: CRISPR KI Y537S (Homo sapiens, UniProt P03372, Y537S)
Construct: endogenous in cells; host or cells: CRISPR knock-in clones (cl. 4, cl. 24)
Experiment: Luciferase assay, CRISPR KI Y537S clones
Format: cell-based
Design: concentration or dose not given beside the values
Details: clone 24
Measured CRISPR KI (% Inhibition) Y537S cl. 24 values are reported for all entries that follow.
attribute.measured: CRISPR KI (% Inhibition) Y537S cl. 24 (%)

>>> obs_value("CC12CC3CC(C)(C1)CC(C(=O)NCCCCOc1ccc(C(=C4C5CC6CC(C5)CC4C6)c4ccc(O)cc4)cc1)(C3)C2 [Example 7]")
"−64"
>>> obs_value("O=C(NCCCCOc1ccc(C(=C2C3CC4CC(C3)CC2C4)c2ccc(O)cc2)cc1)C1CCCCC1 [Example 11]")
"−10"
>>> obs_value("O=C(NCCCCOc1ccc(C(=C2C3CC4CC(C3)CC2C4)c2ccc(O)cc2)cc1)[C@H]1CC[C@H](C(F)(F)F)CC1 [Example 14]")
"−421"
>>> obs_value("O=C(NCCCCOc1ccc(C(=C2C3CC4CC(C3)CC2C4)c2ccc(O)cc2)cc1)C12CC3CC(CC(C3)C1)C2 [Example 6]")
"−108"
